Could you please report measured inhibition at 10 µM for the items listed next?
experimentalSystem: human GPR84 receptor (Homo sapiens, UniProt Q9NQS5)
Construct: host or cells: HEK293, transient transfection
Sequence (Q9NQS5 whole entry): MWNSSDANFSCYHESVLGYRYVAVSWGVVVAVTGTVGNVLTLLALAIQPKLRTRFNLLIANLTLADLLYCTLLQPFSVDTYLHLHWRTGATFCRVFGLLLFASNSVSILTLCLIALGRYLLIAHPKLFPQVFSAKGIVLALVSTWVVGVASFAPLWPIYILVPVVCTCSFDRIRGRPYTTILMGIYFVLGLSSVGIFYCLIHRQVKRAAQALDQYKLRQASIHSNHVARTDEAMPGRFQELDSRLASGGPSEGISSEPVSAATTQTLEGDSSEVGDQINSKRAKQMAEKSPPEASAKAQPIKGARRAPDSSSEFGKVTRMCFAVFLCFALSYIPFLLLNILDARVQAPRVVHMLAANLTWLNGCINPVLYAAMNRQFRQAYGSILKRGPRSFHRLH
testSummary: Gαi biosensor BRET assay in HEK293 cells (antagonism of ZQ-16)
Type: cell-based
testContext: HEK293, single concentration 10 μM (designated F)

Report its inhibition at 10 µM with human GPR84 receptor (Homo sapiens, UniProt Q9NQS5) as the test system: COC(c1cn(CC2CCCCO2)nn1)c1cc(C#CC(C)(C)O)ccc1F (centres unmarked) [Compound I-632]
≤ 25%

Report its inhibition at 10 µM with human GPR84 receptor (Homo sapiens, UniProt Q9NQS5) as the test system: CCc1cc(C#CCNC2CC2)ccc1-c1cn(CC2OCC(C)(C)CO2)nn1 [Compound I-851]
≤ 25%

Report its inhibition at 10 µM with human GPR84 receptor (Homo sapiens, UniProt Q9NQS5) as the test system: C(#CC1CC1)c1ccc2c(c1)CCc1c-2nnn1CC1CCCCO1 (centres unmarked) [Compound I-303]
≤ 25%

Report its inhibition at 10 µM with human GPR84 receptor (Homo sapiens, UniProt Q9NQS5) as the test system: Cc1cc(C#CC2CC2)ccc1-c1cn(CC2CCCCN2)nn1 (centres unmarked) [Compound I-126]
≤ 25%

Report its inhibition at 10 µM with human GPR84 receptor (Homo sapiens, UniProt Q9NQS5) as the test system: COC1CCCN(c2ccc(-c3cn(CC4CCCCO4)nn3)c(C)c2)C1 (centres unmarked) [Compound I-428]
25 to 50%

Report its inhibition at 10 µM with human GPR84 receptor (Homo sapiens, UniProt Q9NQS5) as the test system: Cc1cc(N2CCN(Cc3ccccn3)CC2)cnc1-c1cn(CC2OCC(C)(C)CO2)nn1 [Compound I-597]
50 to 75%

Report its inhibition at 10 µM with human GPR84 receptor (Homo sapiens, UniProt Q9NQS5) as the test system: Cc1cc(N2CCN(Cc3ccccn3)CC2)ccc1-c1cncn1C[C@H]1CCCCO1 [Compound I-672]
≤ 25%

Report its inhibition at 10 µM with human GPR84 receptor (Homo sapiens, UniProt Q9NQS5) as the test system: Cc1cc(CN2CC(=O)NC2=O)ccc1-c1cn(CC2CCCCO2)nn1 (centres unmarked) [Compound I-558]
≤ 25%
